- Tested on: Mus musculus
- assay-text: Neurotoxicity in ip dosed Swiss albino mouse assessed as minimum dose required to cause toxicity after 4 hrs
- Assay type: organism-based
- condition-description: in vivo
value-kind: Activity (mg/kg)
Numbers only here, please. The scale is mg/kg.

Here's what some known entries look like.
COc1ccc(/C(=N\NC(=O)Nc2nnc(COc3ccc4ccccc4c3)o2)c2ccccc2)cc1 = 300
O=C(N/N=C\c1cccc(O)c1)Nc1nnc(COc2ccc3ccccc3c2)o1 = 300
O=C1NC(=O)C(c2ccccc2)(c2ccccc2)N1 = 100

Q. Entry CN(C)c1ccc(/C=N\NC(=O)Nc2nnc(COc3ccc4ccccc4c3)o2)cc1 has what Activity?
A. 300

Q. Next up: O=C(N/N=C\c1ccc(O)cc1)Nc1nnc(COc2ccc3ccccc3c2)o1
A. 100

Q. Next up: NC(=O)N1c2ccccc2C=Cc2ccccc21 [CARBAMAZEPINE]
A. 300

Q. Next up: O=C(N/N=C\c1ccccc1)Nc1nnc(COc2ccc3ccccc3c2)o1
A. 300

Q. Next up: O=C(N/N=C\c1ccc([N+](=O)[O-])cc1)Nc1nnc(COc2ccc3ccccc3c2)o1
A. 300

Q. Next up: C/C(=N/NC(=O)Nc1nnc(COc2ccc3ccccc3c2)o1)c1ccc(O)cc1
A. 300
